B1: Homeobox protein cut-like 1, residues 548 to 629; numbered along this chain, P39880 (parent)
chain: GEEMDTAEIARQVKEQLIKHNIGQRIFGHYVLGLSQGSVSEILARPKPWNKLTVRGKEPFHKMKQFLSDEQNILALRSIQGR

# Variants of: B1
# assay_notes: abundance fitness (aPCA) (normalised: wild type 0, dead -1); higher = more abundant; growth selection in yeast, the domain comes from the species named
# condition_details: Homo sapiens
Tag: Fulfilled if measured abundance fitness is not below -0.2, Not fulfilled if it is.

Some solved cases for reference:
G56E ... Fulfilled
K14S ... Fulfilled
Y30F ... Fulfilled
F27W ... Not fulfilled
I22F ... Not fulfilled
E41F ... Not fulfilled
P46D ... Not fulfilled
K62Y ... Not fulfilled
T53P ... Not fulfilled
S68K ... Fulfilled

Enquiry: Is abundance fitness at least -0.2? Consider G28A
Return: Fulfilled

Enquiry: Now try I9V .
Return: Fulfilled

Enquiry: Next variant up: I73W
Return: Fulfilled

Enquiry: Please do the same for S68Y as well.
Return: Not fulfilled

Enquiry: Item: F27K
Return: Not fulfilled

Enquiry: Could you do the same for G33Q , please?
Return: Not fulfilled
